Test system: mouse
Assay: Test of passive avoidance: amnesia induced by scopolamine
Assay type: in vivo
Conditions: oral administration
Description: The procedure described by Glick and Zimmerberg in Behavioural Biology, 1972, 7: 245-254 and by Lenegre et al in Pharmacol. Biochem. Behav., 29 (3) 1988 were used. The mouse is introduced into the illuminated compartment of a two-compartment box. When it crosses into the darker component its paws receive electric shocks of 0.3 mA until it returns into the illuminated compartment (Assay 1). When the mouse is returned to the box 24 hours later (Assay 2), it avoids going into the darker component. […]
Residues, ends and D or L forms follow the SMILES beside them. *: point of attachment. PhAc = O=C(Cc1ccccc1)*; Bz = O=C(c1ccccc1)*
RECORDED ENDPOINT: dose at which activity is significant / active dose, scopolamine amnesia test (mg/kg)

compound="NC(=O)CN1CCCC1=O [piracetam, reference compound]" unit_text=mg/kg quantitative_readout=2048
compound="NC(=O)[C@@H]1CCCN1C(=O)[C@H](Cc1ccccc1)NC(=O)CNC(=O)c1ccccc1 [Example 6] (Bz-Gly-Phe-Pro-NH2)" unit_text=mg/kg quantitative_readout=2
compound="NC(=O)[C@@H]1CCCN1C(=O)[C@H](Cc1ccccc1)NC(=O)CNC(=O)Cc1ccccc1 [Example 7] (PhAc-Gly-Phe-Pro-NH2)" unit_text=mg/kg quantitative_readout=2
compound="NC(=O)[C@@H]1CCCN1C(=O)[C@H](Cc1ccccc1)NC(=O)CNC(=O)C=Cc1ccccc1 [Example 1]" unit_text=mg/kg quantitative_readout=2
compound="NC(=O)[C@@H]1CCCN1C(=O)[C@H](Cc1ccccc1)NC(=O)CNC(=O)C=Cc1ccc2c(c1)OCO2 [Example 3]" unit_text=mg/kg quantitative_readout=2
